# Test system: MCF-7 breast carcinoma
# ASSAY NAME: MTT cytotoxicity assay, MCF-7
# RUN CONDITIONS: Homo sapiens, MCF7, […], read-out: Cytotoxicity ED50, MCF-7
MEASURED QUANTITY: IC50 (µM)
Numbers only, in µM.

// below: answered compounds
CCCOc1ccc(/C=C/c2cc(OC)c(OC)c(OC)c2)cc1 [16b] ... 12.5
COc1cc(/C=C\c2ccc(Cl)cc2)cc(OC)c1OC ... 0.18

Give IC50 for each of the items listed below.
1. CCOc1ccc(/C=C\c2cc(OC)c(OC)c(OC)c2)cc1 [compound 15a]
2. CCN(CC)CCOC(=O)/C(=C/c1cccc(OC)c1)c1cc(OC)c(OC)c(OC)c1 [24f]

0.096
10.4
